- target_under_test: acetylcholinesterase (AChE) (Homo sapiens, UniProt P22303)
- Sequence (P22303 32-614, species assumed): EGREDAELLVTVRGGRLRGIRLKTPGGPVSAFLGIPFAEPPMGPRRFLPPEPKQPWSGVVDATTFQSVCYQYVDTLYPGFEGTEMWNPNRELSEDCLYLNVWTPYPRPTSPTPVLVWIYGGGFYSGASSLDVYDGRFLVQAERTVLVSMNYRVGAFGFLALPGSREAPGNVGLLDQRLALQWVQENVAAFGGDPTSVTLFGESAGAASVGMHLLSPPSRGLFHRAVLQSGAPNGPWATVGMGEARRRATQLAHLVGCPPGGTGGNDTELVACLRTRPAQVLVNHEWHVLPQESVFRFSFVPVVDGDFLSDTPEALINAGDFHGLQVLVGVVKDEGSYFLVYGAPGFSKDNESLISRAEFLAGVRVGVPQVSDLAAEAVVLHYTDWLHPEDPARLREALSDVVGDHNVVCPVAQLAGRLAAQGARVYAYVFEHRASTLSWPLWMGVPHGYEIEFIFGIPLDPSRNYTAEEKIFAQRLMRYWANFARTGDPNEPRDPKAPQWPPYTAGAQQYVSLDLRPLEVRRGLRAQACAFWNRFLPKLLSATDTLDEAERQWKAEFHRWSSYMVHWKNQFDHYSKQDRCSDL
- procedure_text: biochemical
- condition_label: 80 µg/mL (~160 µM)
- Experimental: In order to determine the acetyl- and butyrylcholinesterase enzyme inhibitions, experiments were carried out by making some changes in the method developed by Ellman. Samples were prepared by dissolving in the appropriate solvent. […] The inhibition fractions of AChE […] BuChE enzymes were calculated using the following equation:I(%) = 100 − ([…]) × 100
Give measured inhibition at 160 µM for each item. Keep answers brief.
I only need the number, in %, no unit after it.

Exam item: GET inhibition at 160 µM where system = acetylcholinesterase (AChE) (Homo sapiens, UniProt P22303) and item = Cc1ccc(-c2csc(=NNC(=O)COc3ccc4c(c3)CCCC4)n2-c2ccccc2)cc1 [Compound 4d]
Marked response: 43.2

Exam item: Write down the reported inhibition at 160 µM (system: acetylcholinesterase (AChE) (Homo sapiens, UniProt P22303)) of O=C(COc1ccc2c(c1)CCCC2)NN=c1scc(-c2ccc(Br)cc2)n1-c1ccccc1 [Compound 4f]
Marked response: 42.9

Exam item: Report value only: inhibition at 160 µM, acetylcholinesterase (AChE) (Homo sapiens, UniProt P22303), COc1ccc(-c2csc(=NNC(=O)COc3ccc4c(c3)CCCC4)n2-c2ccccc2)cc1 [Compound 4e]
Marked response: 10.8

Exam item: State, for acetylcholinesterase (AChE) (Homo sapiens, UniProt P22303), measured inhibition at 160 µM of the molecule listed here: O=C(COc1ccc2c(c1)CCCC2)NN=c1scc(-c2ccccc2)n1-c1ccccc1 [Compound 4c]
Marked response: 19.3

Exam item: Name the value of inhibition at 160 µM reported for O=C(COc1ccc2c(c1)CCCC2)NN=c1scc(-c2ccccc2)n1C1CCCCC1 [Compound 4a] when tested on acetylcholinesterase (AChE) (Homo sapiens, UniProt P22303).
Marked response: 38.3

Exam item: Lab note: record inhibition at 160 µM of O=C(COc1ccc2c(c1)CCCC2)NN=c1scc(-c2ccc([N+](=O)[O-])cc2)n1-c1ccccc1 [Compound 4j] tested on acetylcholinesterase (AChE) (Homo sapiens, UniProt P22303).
Marked response: 45

Exam item: Send back acetylcholinesterase (AChE) (Homo sapiens, UniProt P22303) inhibition at 160 µM of O=C(COc1ccc2c(c1)CCCC2)NN=c1scc(-c2ccc(Cl)cc2)n1-c1ccccc1 [Compound 4g] only.
Marked response: 24.4

Exam item: Look up and report inhibition at 160 µM, with acetylcholinesterase (AChE) (Homo sapiens, UniProt P22303) as system, for O=C(COc1ccc2c(c1)CCCC2)NN=c1scc(-c2cccc([N+](=O)[O-])c2)n1-c1ccccc1 [Compound 4i]
Marked response: 41.9
